tested on: SF-539 CNS; experiment: NCI tumour cell line growth inhibition, 48 h
MEASURED PROPERTY: TGI (µM)
Give bare numbers, in µM.

COMPOUND	MEASURED PROPERTY	EXPERIMENTAL VALUE
CC(C)(C)c1c2c(c(C(C)(C)C)c3c1OCN(Cc1ccccc1)C3)OCN(Cc1ccccc1)C2	TGI	31

Now look at this entry.
Q) Note down TGI recorded for COc1ccc(C2C=C(c3ccc4c(c3)OCO4)Oc3c2c(=O)oc2ccccc32)cc1OC (stereo not given)
A) 1.81

----------
system: SW-620 colon; assay: NCI tumour cell line growth inhibition, 48 h
Where a SMILES comes first, the peptide text is derived from it. The star is where a group is joined. Fmoc = O=C(OCC1c2ccccc2-c2ccccc21)*; Boc = CC(C)(C)OC(=O)*
MEASURED PROPERTY: TGI

Example results:
COMPOUND	MEASURED PROPERTY	EXPERIMENTAL VALUE
NCC1OC(OC2C(CO)OC(OC3C(O)C(N)CC(N)C3OC3OC(CO)C(O)CC3N)C2O)C(N)C(O)C1OC1OC(CO)C(O)C(O)C1O (configuration not stated)	TGI	> 50 µg/mL
COc1ccc(/C=C2\CCC/C(=C\c3ccc(O)c(CN4CCCCC4)c3)C2=O)cc1	TGI	28.8 µM
CC(C)(C)OC(=O)NCCCCC(NC(=O)C(Cc1c[nH]c2ccccc12)NC(=O)OCC1c2ccccc2-c2ccccc21)C(=O)N1CCCC1C(=O)NCC(N)=O (configuration not stated) (Fmoc-WK(Boc)PG-NH2; configuration not given here)	TGI	> 100 µM
Cn1c(=O)sc2cc(C(=S)N3CCC(Cc4ccccc4)CC3)ccc21	TGI	> 100 µM
O=C(CNC(c1ccccc1)(c1ccccc1)c1ccccc1)NC1CCCCC1NC(=O)CNC(c1ccccc1)(c1ccccc1)c1ccccc1 (configuration not stated)	TGI	> 100 µM

// each listed compound needs a value for TGI
1. NC(N)=N/N=C/c1ccc(-c2ccc(-c3cc(Cl)cc(Cl)c3)s2)cc1
2. Cc1ccc2c(c1)S(=O)(=O)c1ccc3ccccc3c1N2

A)
1: 3.34 µM; 2: > 100 µM

----------
Give TGI for every item shown.
tested on: CAKI-1 renal; assay: NCI tumour cell line growth inhibition, 48 h
Numbers only, in µM.

// each listed molecule needs a value for TGI
1. CN1CCN(c2ccc3nc(-c4ccc5nc(-c6ccc(O)cc6)[nH]c5c4)[nH]c3c2)CC1
2. O=C1c2cccc(NCCN=Cc3ccccc3O)c2C(=O)c2c(NCCN=Cc3ccccc3O)cccc21
3. CC1CCC2(CC1)NC1=C(CC(C)CC1)C1=C2CC(C)CC1 (stereo not given)

A)
[306, 4.82, 54.5]

----------
Give log10 TGI for every item shown.
tested on: U251 CNS; assay: NCI tumour cell line growth inhibition, 48 h
// units: µM (pre-log); metric: TGI; scale: log10

MOLECULE	MEASUREMENT TARGET	EXPERIMENTAL VALUE
CCN(CC)Cc1c(/C=C\c2cc(OC)c(OC)c(OC)c2)ccc(OC)c1O	U251 CNS	1.24
O=C1C(Cl)N(c2cccc([N+](=O)[O-])c2)C1c1c[nH]c2ccccc12 (stereo not given)	U251 CNS	1.75
CCNC(=O)O/N=C1\CCC2[C@@H]3CC=C4C[C@@H](OC5CCCCO5)CC[C@]4(C)C3CC[C@]12C (stereo not given in full)	U251 CNS	0.63
Cc1ccccc1-n1c2nc(=O)n(C)c(=O)c-2nc2ccccc21	U251 CNS	1.52
COc1cc(-c2cc(-c3cc(OC)c(OC)c(OC)c3)nc3nc(N)[nH]c(=O)c23)ccc1Oc1ccnc2cc(Cl)ccc12	U251 CNS	0.86

// each listed molecule needs a value for log10 TGI
1. Cn1c(=O)sc2cc(C(=S)N3CCC(Cc4ccccc4)CC3)ccc21
2. O=C1C=CC(=O)c2c1ccc1c3ccccc3n(-c3ccccc3[N+](=O)[O-])c21

A)
[1.89, 1.33]

// each listed molecule needs a value for log10 TGI
1. CC(=O)OC1CC2C3CCC4C[C@@H](NC(=O)C=C(C)C)CC[C@]4(C)C3CC[C@]2(C)[C@H]1C(C)N(C)C (stereo not given in full)
2. CCOC(=O)C(C(=S)SC)c1nn2c(=O)cc(C)nc2s1 (stereo not given)

A)
1. 0.76
2. 1.49
